# assayComment: CMV-Luciferase Counterscreen for Inhibitors of ATXN expression; further: nearly all actives have a fitted effect of over 55% in size
# condition: HEK-293 CMV-luciferase reporter, luminescence, 24 h; series mostly up to 57.5 µM
Among all 2,100 compounds or so, about 670 (32%) were called active. About 50% were inconclusive and are not listed. The call rests on the fitted dose curve; in most records, active means well fitted inhibition curve with a large enough effect; inconclusive means small, poorly fitted or top-dose-only effect; inactive means no such curve, though single readings can be large or run the other way. The list shows a part of the results.
Labels: 1 = active, -1 = inactive

molecule | className
NC(=O)c1cc([N+](=O)[O-])ccc1NCc1ccc(N)cc1 | 1
O=C(O)CSc1cc(NS(=O)(=O)c2cccc([N+](=O)[O-])c2)c2ccccc2c1O | 1
COC(=O)C(Cc1ccc(O)cc1)NC(=O)C(C)Oc1ccccc1 (configuration not stated) | -1
Cc1ccccc1NC(=O)Nc1nc(C(N)C2CCCCC2)cs1 (configuration not stated) | -1
COc1ccc(-c2n(CC(=O)OC3CC(C)CCC3C(C)C)c3ccccc3[n+]2C)cc1 (configuration not stated) | 1
CC(Oc1ccc(F)cc1)C(=O)Nc1nc(-c2ccccn2)cs1 (configuration not stated) | 1
Cc1ccc(/C=C2\SC(=S)N(CCCC(=O)Nc3ccccc3C(=O)O)C2=O)cc1 | 1
Cc1ccc(OCC(=O)N/N=C/c2cccc3cccnc23)cc1 | 1
Nc1nc(N)c2cc(Sc3ccc4ccccc4c3)ccc2n1 | 1
CCCCC(=O)NC(c1ccccc1)c1ccc2cccnc2c1O (configuration not stated) | 1
O=C(/C=C/c1ccc(Cl)cc1)Nc1ccc(CN2CCOCC2)cc1 | 1
Cc1ccc(/C=C2\SC(=S)N(CCCC(=O)Nc3ccc(O)cc3)C2=O)cc1 | 1
c1cc2c(cc1-c1cnc3n1CCC3)OCCO2 | -1
CCc1cc[n+](C2=C([O-])c3ccccc3C(=O)/C2=N\S(=O)(=O)c2cccs2)cc1 | 1
CCN1CCN(CCCNC(=O)c2ccc(/C=C3/Sc4ccccc4N(Cc4ccccc4F)C3=O)cc2)CC1 | -1
Cn1c(CCc2nc3ccccc3[nH]2)nnc1SCC#N | -1
O=C(Nc1cccc2cccnc12)c1csc(COCCO)n1 | -1
Cc1ccc(/C=N/NC(=O)C2=NNC(c3ccccc3)(c3ccccc3)C2)c(O)c1 | 1
Cc1ccc(/C=C2/SC(=S)N(CCCC(=O)Nc3cc([N+](=O)[O-])ccc3O)C2=O)cc1 | 1
O=C1/C(=C/c2ccncc2)CCC/C1=C\c1ccncc1 | 1
Cc1ccc(-n2c(-c3ccccc3)c[n+]3c2CCc2ccccc2-3)c(C)c1 | 1
COC1=CC(=O)C=C(OC)C1(O)CC(C)=O | -1

* * *

# assayComment: CMV-Luciferase Counterscreen for Inhibitors of ATXN expression; further: nearly all actives have a fitted effect of over 55% in size
# condition: HEK-293 CMV-luciferase reporter, luminescence, 24 h; series mostly up to 57.5 µM
The campaign covered roughly 2,100 compounds. About 670 (32%) were called active. Another 50% or so got no clear call; they are omitted. Calls follow the shape of the dose curve; as a rule, active = well fitted inhibition curve with a large enough effect; inconclusive = small, poorly fitted or top-dose-only effect; inactive = no such curve, though single readings can be large or run the other way. The list shows a part of the results.
Labels: yes = active, no = inactive

compound | className
COc1cc2nc(CN(C)Cc3ccc(SC)cc3)[nH]c(=O)c2cc1OC | no
O=C(/C=C/c1ccccc1Cl)c1ccccc(=O)c1O | no
COc1cc(NC(=O)c2cc(-c3ccccc3)nc3c2cnn3C(C)C)cc(OC)c1OC | yes
COc1ccc(C(=O)C=CNNC(=O)c2ccc(Cl)cc2)cc1 | yes
OCCN(Cc1ccccc1)CC(O)COc1ccc(-c2ccccc2)cc1 (stereo unspecified) | no
c1cnc2c(c1)ccc1cccnc12 | yes
CCCCCCn1c2c(c(=N)c3c1CCC3)CCC2 | yes
CCC1=C(OC(=O)N(CC)CC)N2C(=O)OC(=NCCc3c[nH]c4ccccc34)[C@]2(Cc2ccccc2)[C@H]2C1=CC[C@H]1C(=O)N(c3ccccc3)C(=O)[C@H]12 | no
Cc1ccsc1/C=C/C1=Cc2c(sc(NC(=O)CSc3n[nH]c(N)n3)c2C#N)C(C)(C)C1 | no
CC(C)(C)OC(=O)NNc1c2ccccc2nc2ccccc12 | yes
OC[C@@H]1CN(Cc2ccc(-c3ccccc3)cc2)C[C@H](n2cnc3c(NC4CCC4)ncnc32)O1 | yes
Nc1nonc1-n1nnc(C(=O)N/N=C/c2ccccc2O)c1CN1CCCC1 | yes
Cc1cc(OCc2nc(N)nc(N)c2-c2ccc(Cl)c(Cl)c2)ccc1[N+](=O)[O-] | yes
Oc1c(Cl)cc(Cl)cc1/C=N/Nc1ncc(Br)cn1 | yes
NNC(=O)c1nc(-c2ccccc2)cc(-c2ccccc2)n1 | no
COc1ccc(-c2cc(NC=O)c3ncc(-c4cccc(C(=O)NCCN(C)C)c4)n3c2)cc1 | no
CCCCOc1ccc(C(=O)NNC(=S)NC(=O)CC)cc1 | yes
CCc1ccc(-c2nc(CS(=O)CC(=O)NCc3ccco3)c(C)o2)cc1 (stereo unspecified) | yes
Cc1c(CC(=O)NCCCC(=O)O)c(=O)oc2cc3c(cc12)CCC(C)(C)O3 | yes
CCCCOC(=O)/C=C\C(=O)NC(N)=O | yes
O=C1Nc2c(Br)cc(Br)c3cccc1c23 | no
c1ccc(COc2ncnc3c2ncn3CCCN2CCN(Cc3cccc4ccccc34)CC2)cc1 | yes
C(=N\NC(=Nc1ccccc1)c1ccccn1)/c1ccccn1 | no
O=C(Nc1ccc(Oc2ccc(NC(=O)Nc3ccc([N+](=O)[O-])cc3)cc2)cc1)Nc1ccc([N+](=O)[O-])cc1 | yes
CC1(C)c2[nH]c3ccccc3c2C[C@H]2C(=O)N(Cc3ccccc3F)C(=O)N21 | yes
COc1ccccc1CNc1nc(NCc2cccc(OC)c2OC)c2sccc2n1 | yes
Cc1cc(C)c2nc(NNC(=O)c3cc(-c4cccs4)nc4ccccc34)sc2c1 | yes
C=CCc1cccc(/C=N/NC(=O)CNc2ccccc2)c1O | yes
C=CCc1cccc(/C=N/NC(=O)CCCNc2ccc(C)cc2)c1O | yes
Cc1ccc(C)c(N2CCN(C(=O)CCCCCn3c(=S)[nH]c4ccc(N5CCOCC5)cc4c3=O)CC2)c1 | yes
CN(C)CCNc1ncnc2c1ncn2[C@H]1CN(Cc2ccc(-c3ccccc3)cc2)C[C@@H](CO)O1 | no
CC1(C)c2[nH]c3ccccc3c2C[C@H]2C(=O)N(Cc3cccc(F)c3)C(=O)N21 | yes
NC(=O)CC(NC(=O)Cc1ccc(Br)cc1)c1ccc(NC2CCCC2)c([N+](=O)[O-])c1 (stereo unspecified) | yes
Cc1ccc(Nc2c(-c3ccccn3)nc3cccc(C)n23)cc1 | yes
OC[C@@H]1CN(Cc2ccc(-c3ccccc3)cc2)C[C@H](n2cnc3c(Nc4ccccc4)ncnc32)O1 | yes
CCN1CCN(C2=C(NS(=O)(=O)c3ccc(C)cc3)C(=O)c3ccccc3C2=O)CC1 | yes
Cc1nnc(N/N=C/c2ccccn2)[nH]c1=O | yes
Cc1ccc2nc(-c3ccccc3)nn2c1 | yes
c1nc(CCO[C@H]2CCCCO2)cc2cc3c(cc12)OCO3 | yes
O=C(CN(c1cccc(Br)c1)S(=O)(=O)c1ccccc1)N/N=C/c1cc([N+](=O)[O-])ccc1O | yes
Cc1ccc(C(NC(=O)C2CCN(Cc3ccc(Cl)c(Cl)c3)CC2)c2ccccn2)cc1 (stereo unspecified) | yes

* * *

# assayComment: CMV-Luciferase Counterscreen for Inhibitors of ATXN expression; further: nearly all actives have a fitted effect of over 55% in size
# condition: HEK-293 CMV-luciferase reporter, luminescence, 24 h; series mostly up to 57.5 µM
The whole screen tested about 2,100 compounds, of which about 670 (32%) were called active. Not shown: some 50% with an inconclusive outcome. The call rests on the fitted dose curve; in most records, active means well fitted inhibition curve with a large enough effect; inconclusive means small, poorly fitted or top-dose-only effect; inactive means no such curve, though single readings can be large or run the other way. This is one part of the list.
Outcome codes: active, inactive

compound | className
Cc1cc(N/N=C/c2ccccc2[N+](=O)[O-])nc(-n2nc(C)cc2C)n1 | active
Cc1nc(N=C(N)N)nc2c(C)cccc12 | inactive
CCC1=C(CC2NCCc3ccccc32)CC2c3cc(OC)c(OC)cc3CCN2C1 (stereo not drawn) | active
Cc1cc(O)c(C(C)C)cc1N=Cc1ccccc1[N+](=O)[O-] | inactive
O=C(N/N=C/c1cc([N+](=O)[O-])ccc1O)c1cccc2cc[nH]c12 | active
CCN(Cc1ccccc1)S(=O)(=O)c1ccc(C(=O)Nc2nnc(C3CC3)o2)cc1 | active
COc1ccccc1-c1ccc2c(c1)C(C)(Cc1cccc(F)c1)C(=O)N2 (stereo not drawn) | active
O=C(Nc1nnc(C2CC2)o1)c1ccc(S(=O)(=O)N2CCCc3ccccc32)cc1 | active
Cn1nnnc1Sc1ncnc2scc(-c3ccsc3)c12 | active
CC[n+]1c(/C=C/c2c[nH]c3ccccc23)ccc2cc(C)ccc21 | active
CCOC(=O)c1ccccc1NC(=O)CSc1nc2ccccc2c(=O)n1CCCN1CCOCC1 | active
O=S(=O)(c1ccc(Cl)cc1)N1CCN(Cc2ccc(O)c3ncccc23)CC1 | active
CN(C)CCCNc1nc2cc(-c3ccc(F)cc3)sc2c(=O)n1C | inactive
CC[C@H]1CN2CCc3cc(OC)c(OC)cc3[C@@H]2C[C@@H]1C[C@H]1NCCc2cc(OC)c(OC)cc21 | active
Cc1ccc2nc(NC(=O)/C=C/c3ccc4c(c3)OCO4)sc2c1 | inactive
CCCCSc1nc(C)cc(SCC(=O)N/N=C/c2cccc(OC)c2O)n1 | active
N#CC1=C(N)N2C(=C(C#N)C1c1ccc(Br)cc1)Nc1ccccc12 (stereo not drawn) | active
CN(/N=C/c1cc(Br)cc(Br)c1O)c1cccc(C(F)(F)F)n1 | active
c1ccc2c(c1)C(=NC1CCCCC1)NC2=NC1CCCCC1 | inactive
CN(CC(=O)NCc1ccc(F)cc1)CC(=O)Nc1ccc(Cl)c(C(F)(F)F)c1 | active
COc1cccc(C(NC(C)=O)c2ccc3cccnc3c2O)c1 (stereo not drawn) | active
O=C(CNC(=O)c1cccc(F)c1)N/N=C/c1cc(Br)ccc1OC(=O)/C=C/c1ccco1 | active
CN(CC(=O)Nc1ccc(Cl)c(C(F)(F)F)c1)C(=O)c1cccnc1Sc1ccccc1 | inactive
COc1cccc(/C=N/NC(=O)Cn2nc(C)c([N+](=O)[O-])c2C)c1O | active
Cc1ccnn1CC(=O)N/N=C/c1ccc([N+](=O)[O-])s1 | active
Cn1c(NCCN2CCCC2)nc2cc(-c3ccsc3)sc2c1=O | inactive
COc1cc(C#Cc2c(-c3cncn3C)n(C)c3ccc(-c4cnc(OC)nc4)cc23)cc(OC)c1 | active
N#CC1=C(N)N2C(=C(C#N)C1c1cccc(Br)c1)Nc1ccccc12 (stereo not drawn) | active
CC[C@H]1CN2CCc3cc(OC)c(OC)cc3C2C[C@@H]1C[C@H]1NCCc2cc(OC)c(OC)cc21 (stereo partly drawn) | active
Cc1nc(-c2c(C(F)(F)F)noc2-c2ccc(O)cc2O)cs1 | active
Cc1cc2oc3ccc(NCCC4CCCN4C)cc3c(=O)c2cc1C (stereo not drawn) | inactive
CC(=O)NC(c1ccc2ccccc2c1)c1ccc2cccnc2c1O (stereo not drawn) | active
Cc1nc(C(F)(F)F)c(C(=O)N/N=C(\N)c2ccccn2)s1 | active
CCC(=O)NC(c1ccco1)c1cc(Br)c2cccnc2c1O (stereo not drawn) | active
CCn1c(C)cc(C(=O)COC(=O)c2ccccc2[N+](=O)[O-])c1C | active
O=C(Nc1ccc(Cl)c(Cl)c1)c1cccc(S(=O)(=O)NCc2cccnc2)c1 | active
CN1CCC(N(C)C(=O)c2ccc(Cl)c(S(=O)(=O)N3CCc4ccccc43)c2)CC1 | inactive
Cc1nc(SCC(=O)Nc2ccc(S(=O)(=O)N3CCOCC3)cc2)c2c(C)c(C)sc2n1 | active
Cc1ccccc1N=Nc1ccc(O)c2ncccc12 | active
COc1ccc(NC(=O)N2CCN(c3nc(-c4cccc(OC)c4)cs3)CC2)cc1 | active
Cc1ccc(C(=O)CN2C(=O)c3ccccc3S2(=O)=O)cc1 | active
Cc1ccc(N=Nc2ccc(O)c3ncccc23)cc1 | active
CCN1CCN(c2ccc(S(=O)(=O)N3CCCCC3)cc2NC(=O)c2ccc([N+](=O)[O-])s2)CC1 | active
